Target Entity: μ-opioid receptor (Homo sapiens, UniProt P35372)
Sequence (P35372 whole entry, species assumed): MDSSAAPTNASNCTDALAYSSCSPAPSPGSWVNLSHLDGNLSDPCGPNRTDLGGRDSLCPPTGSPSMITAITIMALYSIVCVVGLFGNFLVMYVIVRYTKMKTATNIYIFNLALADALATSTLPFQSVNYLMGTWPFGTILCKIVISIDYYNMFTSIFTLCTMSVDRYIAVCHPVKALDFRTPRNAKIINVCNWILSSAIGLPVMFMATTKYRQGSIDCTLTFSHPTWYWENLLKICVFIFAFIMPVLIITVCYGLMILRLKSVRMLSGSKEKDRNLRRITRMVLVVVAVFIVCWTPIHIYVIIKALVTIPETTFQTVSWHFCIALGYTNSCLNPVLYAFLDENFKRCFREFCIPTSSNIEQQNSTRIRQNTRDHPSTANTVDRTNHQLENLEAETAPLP
Protocol Summary: biochemical
Design: purchased Perkin Elmer, Shelton, Conn; host or cells: HEK-293 or CHO
Assay Conditions: HEK-293 or CHO cells; read-out: GTPγS μ EC50
Items are presented alongside their recorded pEC50.
Scale note: pEC50 = -log10(concentration in M).

Ask: Recorded pEC50 of `C[C@H]1[C@H]2Cc3ccc(O)cc3[C@]1(CCN1CCC(N(C3CC3)S(=O)(=O)c3ccccc3)CC1)CCN2C` , please.
Reply: 6.21

---

Target Entity: μ-opioid receptor (Homo sapiens, UniProt P35372)
Protocol Summary: biochemical
Parameters: purchased Perkin Elmer, Shelton, Conn; host or cells: HEK-293 or CHO
Assay Conditions: HEK-293 or CHO cells; read-out: GTPγS μ EC50
Items are presented alongside their recorded pEC50.
Scale note: pEC50 = -log10(concentration in M).

- Structure As Smiles: "C[C@H]1[C@H]2Cc3ccc(O)cc3[C@]1(CCNC(=O)[C@@H]1CCCCN1)CCN2C"
  Measured Result: 6.11
- Structure As Smiles: "C[C@H]1[C@H]2Cc3ccc(O)cc3[C@]1(CCNC(=O)c1ccc(F)cc1)CCN2C"
  Measured Result: 7.87
- Structure As Smiles: "C[C@H]1[C@H]2Cc3ccc(O)cc3[C@]1(CCNC(=O)CCc1ccccc1)CCN2C"
  Measured Result: 8.19

Here's the next entry for you.
Ask: Recorded pEC50 of `C[C@H]1[C@H]2Cc3ccc(O)cc3[C@]1(CCNC(=O)NCC(c1ccccc1)c1ccccc1)CCN2C` , please.
Reply: 8.34
